# System: HOP-92 NSCLC
# ASSAY_PROTOCOL: NCI tumour cell line growth inhibition, 48 h; in the data active means GI50 below about 0.43 µM; inactive means the rest
The reply should be one of these categories: active, inactive

Problem: Write down the call the test reported for this molecule. Item: C=C1CC[C@@H]2[C@](C)(COC(C)=O)[C@H](OC(C)=O)CC[C@@]2(C)[C@@H]1CC(Nc1ccc(S(=O)(=O)Nc2ncccn2)cc1)C1=CCOC1=O (some centres not stated)
Solution: inactive

Problem: Recorded test outcome, item CC[C@H](C)[C@H]1O[C@]2(C=C[C@@H]1C)C[C@@H]1C[C@@H](C/C=C(\C)[C@@H](O[C@H]3C[C@H](OC)[C@@H](O[C@H]4C[C@H](OC)[C@@H](NC)[C@H](C)O4)[C@H](C)O3)[C@@H](C)/C=C/C=C3\CO[C@@H]4[C@H](O)C(C)=C[C@@H](C(=O)O1)[C@]34O)O2
Solution: inactive

Problem: For Cc1cc(O)c(C(C)(C)C)cc1Sc1cc(C(C)(C)C)c(O)cc1C , what call appears in the results of this test?
Solution: inactive

Problem: Can you look up the reported call for Cc1ccc2[nH]c(C(=O)NN3C(=O)C(C)SC34CCCC(C)C4)c(-c3ccccc3)c2c1 (configuration not stated) for me?
Solution: inactive

Problem: What was the test verdict on C/C=C1/C(=C/c2[nH]c(/C=c3\[nH]/c(=C/C4=NC(=O)C(CC)=C4C)c(C)c3CCC(=O)O)c(CCC(=O)O)c2C)NC(=O)C1C (configuration not stated) ?
Solution: inactive

Problem: Outcome logged for Nc1nc(-c2cccc(Cl)c2)c(-c2ccc3ncccc3n2)s1 in this assay:
Solution: inactive

Problem: What did the test return for CC[CH2][Sn]([Cl])([Cl])[CH2]CC.Oc1ccccc1C=NCCN=Cc1ccccc1O ?
Solution: inactive
